# Measurement protocol: Half life in iv dosed squirrel monkey
# Assay type: ADME, organism-based, Saimiri sciureus
# Measurement context: in vivo
Readout type: half-life (min)

[[record]]
molecule = "CC(c1cccc(-c2cc(C(C)(C)S(C)(=O)=O)cc3cccnc23)c1)N(C(=O)c1ccc(F)cc1)c1ccc(S(C)(=O)=O)cc1 (racemic)"
recorded_measurement = 420


---

# Measurement protocol: Cmax in squirrel monkey
# Assay type: ADME, organism-based, Saimiri sciureus
# Measurement context: in vivo
Readout type: Cmax

[[record]]
compound = "CC(c1cccc(-c2cc(C(C)(C)S(C)(=O)=O)cc3cccnc23)c1)N(C(=O)c1ccc(F)cc1)c1ccc(S(C)(=O)=O)cc1 (racemic)"
recorded_measurement = "900 nM"

